tested on: K4 kissing-loop RNA reporter; assay: apparent KD of K4 kissing-loop reporter; higher = weaker reporter binding; details: Eterna round: R107; input ligand: FMN 200 uM

residue-string: CCGAAGAACCAGUGAUGUUGGUUGACUAGACAGGAUAUGAGCAACAUCAGAAGGGUCUGGCUUCGGGAGUGGGUUGCGCUGACCU [Onbizaes]
system: K4 kissing-loop RNA reporter
apparent KD of K4 kissing-loop reporter, nM: 283

residue-string: AAGUCAUAUAGAAGGAGCGUGUUUUUUAAUUUAUUUUCAUGAUCGAGUGAUGUUCGAUAUACACAGGUAGGUCGCUGUAUAAUAA [hbob_SS_Arginine_B_2t141]
system: K4 kissing-loop RNA reporter
apparent KD of K4 kissing-loop reporter, nM: 126

residue-string: UGAUACCAGACGGCCGCCACUGCACCAGUCAAUGACUGAGUGUGGUAAUGCUCAGUGAUGUUGAGUAGGACCGGGUCUGGUAUCU [Mod of Eli's TrypBX 8 v2]
system: K4 kissing-loop RNA reporter
apparent KD of K4 kissing-loop reporter, nM: 135

residue-string: GGCCGCAAGGCGAGCGCUCCCACUCCGGAAGGAGCGCCCGGAAGGGCAGGUAGGUCGCCGGAGUGAUGUUCCGGUGGAGGGCUCG [#2 Exclusion - Arginine A Attempt #18 (Inspired by Omei)]
system: K4 kissing-loop RNA reporter;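 note: bound reporter read as fluorescence of individual clusters on recovered sequencing chips by microscopy, with normalized cluster intensities fitted with a binding model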
apparent KD of K4 kissing-loop reporter, nM: 435

These measurements were taken from the supplement of paper PMC9170038.
